All values here come from patent US8969373B2.

experiment: Pharmacokinetic evaluation in SD rats after oral administration; assay type: in vivo, Sprague-Dawley (SD) rats; details: male, Sprague-Dawley, rat, plasma, oral gavage, 10 mg/kg
propertyLabel: log10(AUC(0-t)) (log10 of the value in ng·h/mL)

molecule: COc1ccc2c(c1)c(O[C@@H]1C[C@H]3C(=O)N[C@]4(C(=O)NS(=O)(=O)C5CC5)C[C@H]4/C=C\CCCCC[C@H](NC(=O)OC(C)(C)C)C(=O)N3C1)nc1c3ccccc3oc21 [Compound 18]
quantitativeResult: 3.51

molecule: COc1ccc2oc3c4ccccc4c(O[C@@H]4C[C@H]5C(=O)N[C@]6(C(=O)NS(=O)(=O)C7CC7)C[C@H]6/C=C\CCCCC[C@H](NC(=O)OC(C)(C)C)C(=O)N5C4)nc3c2c1 [Compound 2]
quantitativeResult: 2.20

molecule: CC(C)(C)OC(=O)N[C@H]1CCCCC/C=C\[C@@H]2C[C@@]2(C(=O)NS(=O)(=O)C2CC2)NC(=O)[C@@H]2C[C@@H](Oc3nc4c5cc(Cl)ccc5oc4c4ccccc34)CN2C1=O [Compound 5]
quantitativeResult: 3.46

molecule: C=C[C@@H]1C[C@]1(NC(=O)[C@@H]1C[C@@H](Oc2cc(-c3ccccc3)nc3c2oc2ccccc23)CN1C(=O)[C@@H](NC(=O)OC(C)(C)C)C(C)(C)C)C(=O)NS(=O)(=O)C1CC1 [Compound 38]
quantitativeResult: 2.38

molecule: C=C[C@@H]1C[C@]1(NC(=O)[C@@H]1C[C@@H](Oc2cc(-c3csc(NC(=O)C(C)C)n3)nc3c2oc2ccc(OC)c(Cl)c23)CN1C(=O)[C@@H](NC(=O)OC(C)(C)C)C(C)(C)C)C(=O)NS(=O)(=O)C1CC1 [Compound 34]
quantitativeResult: 0.98

---

experiment: Pharmacokinetic evaluation in SD rats after oral administration; type: in vivo, Sprague-Dawley (SD) rats; conditions: male, Sprague-Dawley, rat, plasma, po, 10 mg/kg, oral gavage, read-out: Cmax

compound: COc1ccc2c(c1)c(O[C@@H]1C[C@H]3C(=O)N[C@]4(C(=O)NS(=O)(=O)C5CC5)C[C@H]4/C=C\CCCCC[C@H](NC(=O)OC(C)(C)C)C(=O)N3C1)nc1c3ccccc3oc21 [Compound 18]
Cmax (ng/mL): 623
//
compound: C=C[C@@H]1C[C@]1(NC(=O)[C@@H]1C[C@@H](Oc2cc(-c3csc(NC(=O)C(C)C)n3)nc3c2oc2ccc(OC)c(Cl)c23)CN1C(=O)[C@@H](NC(=O)OC(C)(C)C)C(C)(C)C)C(=O)NS(=O)(=O)C1CC1 [Compound 34]
Cmax (ng/mL): 11.4
//
compound: COc1ccc2oc3c4ccccc4c(O[C@@H]4C[C@H]5C(=O)N[C@]6(C(=O)NS(=O)(=O)C7CC7)C[C@H]6/C=C\CCCCC[C@H](NC(=O)OC(C)(C)C)C(=O)N5C4)nc3c2c1 [Compound 2]
Cmax (ng/mL): 49.7
//
compound: CC(C)(C)OC(=O)N[C@H]1CCCCC/C=C\[C@@H]2C[C@@]2(C(=O)NS(=O)(=O)C2CC2)NC(=O)[C@@H]2C[C@@H](Oc3nc4c5cc(Cl)ccc5oc4c4ccccc34)CN2C1=O [Compound 5]
Cmax (ng/mL): 560
//
compound: C=C[C@@H]1C[C@]1(NC(=O)[C@@H]1C[C@@H](Oc2cc(-c3ccccc3)nc3c2oc2ccccc23)CN1C(=O)[C@@H](NC(=O)OC(C)(C)C)C(C)(C)C)C(=O)NS(=O)(=O)C1CC1 [Compound 38]
Cmax (ng/mL): 150

---

assay: Pharmacokinetic evaluation in SD rats after oral administration; format: in vivo, Sprague-Dawley (SD) rats; conditions: male, Sprague-Dawley, rat, plasma, oral gavage, 10 mg/kg
propertyLabel: AUC(0-inf) (ng·h/mL)

compound: COc1ccc2oc3c4ccccc4c(O[C@@H]4C[C@H]5C(=O)N[C@]6(C(=O)NS(=O)(=O)C7CC7)C[C@H]6/C=C\CCCCC[C@H](NC(=O)OC(C)(C)C)C(=O)N5C4)nc3c2c1 [Compound 2]
quantitativeResult: 1780
--
compound: C=C[C@@H]1C[C@]1(NC(=O)[C@@H]1C[C@@H](Oc2cc(-c3csc(NC(=O)C(C)C)n3)nc3c2oc2ccc(OC)c(Cl)c23)CN1C(=O)[C@@H](NC(=O)OC(C)(C)C)C(C)(C)C)C(=O)NS(=O)(=O)C1CC1 [Compound 34]
quantitativeResult: 11
--
compound: COc1ccc2c(c1)c(O[C@@H]1C[C@H]3C(=O)N[C@]4(C(=O)NS(=O)(=O)C5CC5)C[C@H]4/C=C\CCCCC[C@H](NC(=O)OC(C)(C)C)C(=O)N3C1)nc1c3ccccc3oc21 [Compound 18]
quantitativeResult: 3270
--
compound: CC(C)(C)OC(=O)N[C@H]1CCCCC/C=C\[C@@H]2C[C@@]2(C(=O)NS(=O)(=O)C2CC2)NC(=O)[C@@H]2C[C@@H](Oc3nc4c5cc(Cl)ccc5oc4c4ccccc34)CN2C1=O [Compound 5]
quantitativeResult: 3030
--
compound: C=C[C@@H]1C[C@]1(NC(=O)[C@@H]1C[C@@H](Oc2cc(-c3ccccc3)nc3c2oc2ccccc23)CN1C(=O)[C@@H](NC(=O)OC(C)(C)C)C(C)(C)C)C(=O)NS(=O)(=O)C1CC1 [Compound 38]
quantitativeResult: 243

---

Assay: Pharmacokinetic evaluation in SD rats after oral administration
Format: in vivo, Sprague-Dawley (SD) rats
Conditions: male, Sprague-Dawley, rat, plasma, oral gavage, 10 mg/kg
Method: Pharmacokinetic Evaluation of the Compounds of this Invention Twenty healthy male Sprague-Dawley (SD) rats with body weight of 200-220 g were divided into 5 groups randomly and each group contains 4 rats. Before the experiment, rats were fasted for 12 h with free access to water. The compound Ik (wherein k=2, 5, 18, 34 or 38) of this invention was administered by oral gavage at a dose level of 10 mg/kg. […] LC-MS/MS methods were used to quantify plasma concentrations of the compound Ik.
// reported half-life for each item listed
propertyLabel: half-life (min)

smilesEntry: CC(C)(C)OC(=O)N[C@H]1CCCCC/C=C\[C@@H]2C[C@@]2(C(=O)NS(=O)(=O)C2CC2)NC(=O)[C@@H]2C[C@@H](Oc3nc4c5cc(Cl)ccc5oc4c4ccccc34)CN2C1=O
propertyLabel: half-life
unitSymbol: min
quantitativeResult: 209
--
smilesEntry: C=C[C@@H]1C[C@]1(NC(=O)[C@@H]1C[C@@H](Oc2cc(-c3ccccc3)nc3c2oc2ccccc23)CN1C(=O)[C@@H](NC(=O)OC(C)(C)C)C(C)(C)C)C(=O)NS(=O)(=O)C1CC1
propertyLabel: half-life
unitSymbol: min
quantitativeResult: 43.2
--
smilesEntry: COc1ccc2c(c1)c(O[C@@H]1C[C@H]3C(=O)N[C@]4(C(=O)NS(=O)(=O)C5CC5)C[C@H]4/C=C\CCCCC[C@H](NC(=O)OC(C)(C)C)C(=O)N3C1)nc1c3ccccc3oc21
propertyLabel: half-life
unitSymbol: min
quantitativeResult: 228
--
smilesEntry: COc1ccc2oc3c4ccccc4c(O[C@@H]4C[C@H]5C(=O)N[C@]6(C(=O)NS(=O)(=O)C7CC7)C[C@H]6/C=C\CCCCC[C@H](NC(=O)OC(C)(C)C)C(=O)N5C4)nc3c2c1
propertyLabel: half-life
unitSymbol: min
quantitativeResult: 186
--
smilesEntry: C=C[C@@H]1C[C@]1(NC(=O)[C@@H]1C[C@@H](Oc2cc(-c3csc(NC(=O)C(C)C)n3)nc3c2oc2ccc(OC)c(Cl)c23)CN1C(=O)[C@@H](NC(=O)OC(C)(C)C)C(C)(C)C)C(=O)NS(=O)(=O)C1CC1
propertyLabel: half-life
unitSymbol: min
quantitativeResult: 30

---

Test: Pharmacokinetic evaluation in SD rats after oral administration
Type: in vivo, Sprague-Dawley (SD) rats
Details: male, Sprague-Dawley, rat, plasma, po, 10 mg/kg, oral gavage, read-out: F (absolute bioavailability)
Description: Pharmacokinetic Evaluation of the Compounds of this Invention Twenty healthy male Sprague-Dawley (SD) rats with body weight of 200-220 g were divided into 5 groups randomly and each group contains 4 rats. Before the experiment, rats were fasted for 12 h with free access to water. The compound Ik (wherein k=2, 5, 18, 34 or 38) of this invention was administered by oral gavage at a dose level of 10 mg/kg. […] LC-MS/MS methods were used to quantify plasma concentrations of the compound Ik.
// reported bioavailability for each item listed
propertyLabel: bioavailability (%)

smilesEntry: C=C[C@@H]1C[C@]1(NC(=O)[C@@H]1C[C@@H](Oc2cc(-c3csc(NC(=O)C(C)C)n3)nc3c2oc2ccc(OC)c(Cl)c23)CN1C(=O)[C@@H](NC(=O)OC(C)(C)C)C(C)(C)C)C(=O)NS(=O)(=O)C1CC1
quantitativeResult: 1.6

smilesEntry: CC(C)(C)OC(=O)N[C@H]1CCCCC/C=C\[C@@H]2C[C@@]2(C(=O)NS(=O)(=O)C2CC2)NC(=O)[C@@H]2C[C@@H](Oc3nc4c5cc(Cl)ccc5oc4c4ccccc34)CN2C1=O
quantitativeResult: 17.1

smilesEntry: C=C[C@@H]1C[C@]1(NC(=O)[C@@H]1C[C@@H](Oc2cc(-c3ccccc3)nc3c2oc2ccccc23)CN1C(=O)[C@@H](NC(=O)OC(C)(C)C)C(C)(C)C)C(=O)NS(=O)(=O)C1CC1
quantitativeResult: 8.7

smilesEntry: COc1ccc2oc3c4ccccc4c(O[C@@H]4C[C@H]5C(=O)N[C@]6(C(=O)NS(=O)(=O)C7CC7)C[C@H]6/C=C\CCCCC[C@H](NC(=O)OC(C)(C)C)C(=O)N5C4)nc3c2c1
quantitativeResult: 1.8
